The reported numbers originate from patent US20250092016A1.

Property: IC50; scope: individual compounds
Biological target: SARS-CoV-2 main protease (M^pro) (Severe acute respiratory syndrome coronavirus 2)
Assay: Rapid-Fire MS Biochemical Assay measuring Mpro activity (5 nM Mpro)
Conditions: Table 1B, Mpro inhibition, 5 μM substrate peptide, 120 min, read-out: Rapid-Fire Assay IC50

These recorded examples may help you get a feel for the data.
Compound	IC50
COc1cc(Cl)ccc1N1C[C@H](C#N)N(c2cncc3ccccc23)C1=O (single isomer, unassigned) [Compound 103a]	< 20 nM
N#C[C@H]1CN(C2CC3(CCC3)C2)C(=O)N1c1cncc2ccccc12 (single isomer, unassigned) [Compound 122a]	< 20 nM

Ask: Please report the recorded IC50 for N#C[C@@H]1CN(c2ccc(C(F)F)cn2)C(=O)N1c1cncc2ccccc12 (single isomer, unassigned) [Compound 78b] .
Result: > 1000 nM

Ask: Fill in: IC50 of N#C[C@@H]1CN(c2ccc(OC(F)(F)F)cc2)C(=O)N1c1cncc2ccccc12 (single isomer, unassigned) [Compound 91b] is ___
Result: > 1000 nM

###

Target: SARS-CoV-2 main protease (M^pro) (Severe acute respiratory syndrome coronavirus 2)
Test: Rapid-Fire MS Biochemical Assay measuring Mpro activity (5 nM Mpro)
Conditions: Table 1B, Mpro inhibition, 5 μM substrate peptide, 120 min, read-out: Rapid-Fire Assay IC50
pIC50: −log10 of the molar value.
Assay readout: pIC50

Ask: Requested field: pIC50. Item: N#CC1CN(C2CC3(C2)CC(F)(F)C3)C(=O)N1c1cncc2ccccc12 (racemic)
Result: > 7.70

Ask: Give the measured pIC50 of N#CC1CN(c2cc(F)cc(F)c2)C(=O)N1c1cncc2ccccc12 (racemic) .
Result: > 7.70

Ask: Looking for the measured pIC50 of Cc1cc(Cl)cnc1N1CC(C#N)N(c2cncc3ccccc23)C1=O (racemic) , can you help?
Result: 6.70 to 7.70

Ask: What does the record list as pIC50 for N#CC1CN(c2ccc(=O)[nH]c2)C(=O)N1c1cncc2ccccc12 (racemic) ?
Result: < 6.00

Ask: What pIC50 value was documented for this molecule, Cc1ccc(OC(F)F)cc1N1C[C@H](C#N)N(c2cncc3ccccc23)C1=O (single isomer, unassigned) [Compound 101a] ?
Result: > 7.70

Ask: I am curious: what pIC50 value has been reported for CS(=O)(=O)N1CC(N2C[C@H](C#N)N(c3cncc4ccccc34)C2=O)C1 (single isomer, unassigned) [Compound 130a] ?
Result: 6.00 to 6.70

###

Biological target: UniProtKB P0DTD1
Experiment: Rapid-Fire MS Biochemical Assay measuring Mpro activity (5 nM Mpro)
Details: Table 1B, Mpro inhibition, 5 μM substrate peptide, 120 min, read-out: Rapid-Fire Assay IC50
Assay readout: IC50

Compound	System tested	IC50
N#C[C@H]1CN(c2cnc(C(F)(F)F)cn2)C(=O)N1c1cncc2ccccc12 (single isomer, unassigned) [Compound 32a]	UniProtKB P0DTD1	< 0.02 µM
N#C[C@@H]1CN(c2cnc(C(F)(F)F)nc2)C(=O)N1c1cncc2ccccc12 (single isomer, unassigned) [Compound 93b]	UniProtKB P0DTD1	> 1 µM

Ask: Dear colleague, I am looking for the recorded IC50 of the following compound: CC(C)[C@H]1C[C@@H](N2C[C@@H](C#N)N(c3cncc4ccccc34)C2=O)C1 [Compound 123c]
Result: > 1 µM
